Collected log10(Ki) values appear next to each entry.
tested system: truncated PI3Kα (p110α/iSH2 p85α) (Homo sapiens (Human), UniProt P42336)
Sequence (P42336 whole entry, the tested form may be a part): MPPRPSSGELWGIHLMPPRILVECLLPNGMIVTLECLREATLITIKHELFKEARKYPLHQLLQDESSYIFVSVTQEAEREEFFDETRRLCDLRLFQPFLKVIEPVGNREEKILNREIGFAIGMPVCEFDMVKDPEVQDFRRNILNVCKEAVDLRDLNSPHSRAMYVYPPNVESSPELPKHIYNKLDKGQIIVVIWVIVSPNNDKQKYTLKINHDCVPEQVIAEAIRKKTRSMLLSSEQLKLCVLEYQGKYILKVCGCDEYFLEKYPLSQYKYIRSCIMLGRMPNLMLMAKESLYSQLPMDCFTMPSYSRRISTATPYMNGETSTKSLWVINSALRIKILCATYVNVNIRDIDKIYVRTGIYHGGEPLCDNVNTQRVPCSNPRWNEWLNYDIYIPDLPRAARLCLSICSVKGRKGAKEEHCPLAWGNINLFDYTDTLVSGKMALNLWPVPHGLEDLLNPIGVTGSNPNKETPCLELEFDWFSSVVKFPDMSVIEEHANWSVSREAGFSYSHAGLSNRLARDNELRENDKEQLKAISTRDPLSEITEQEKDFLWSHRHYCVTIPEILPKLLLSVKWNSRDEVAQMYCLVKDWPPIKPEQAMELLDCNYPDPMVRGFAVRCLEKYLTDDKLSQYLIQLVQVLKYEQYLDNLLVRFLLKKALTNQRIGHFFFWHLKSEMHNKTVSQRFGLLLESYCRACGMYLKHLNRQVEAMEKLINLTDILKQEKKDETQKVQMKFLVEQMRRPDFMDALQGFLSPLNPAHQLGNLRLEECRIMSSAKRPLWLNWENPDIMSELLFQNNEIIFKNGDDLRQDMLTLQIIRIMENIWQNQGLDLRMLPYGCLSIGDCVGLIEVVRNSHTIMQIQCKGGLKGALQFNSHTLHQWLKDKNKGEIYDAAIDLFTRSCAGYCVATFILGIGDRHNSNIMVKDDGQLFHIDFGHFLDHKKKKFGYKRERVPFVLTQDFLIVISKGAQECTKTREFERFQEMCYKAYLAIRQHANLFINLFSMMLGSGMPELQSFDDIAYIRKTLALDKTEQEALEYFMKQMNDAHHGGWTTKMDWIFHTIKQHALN
protocol: PI3KA_Act fluorescence polarization kinase assay (Ki)
test context: 1 mM ATP
Experimental: 2) p110α-iSH2 p85α Complex (Full Length p110α and p85α iSH2)(“PI3KA_Act”) […] The biochemical assays of kinase activity of full-length PI3Kα (full-length p110α/p85a) or truncated PI3Kα (p110α/iSH2 p85a) were conducted using a fluorescence polarization format similar to the procedure of Yuan J., et al., (2011) “PF-04691502, a Potent and Selective Oral Inhibitor of PI3K and mTOR Kinases with Antitumor Activity”, Mol Cancer Ther. 10, 2189-2199. […]
Where a name gives a salt, the structure may show the parent alone.
measurement kind: log10(Ki) (log10 of the value in nM)

# molecule, log10(Ki)
records = [
    ("C[C@H]1COCCN1c1nc(-c2cnc(N)nc2)c2c(n1)N([C@@H]1[C@H]3CN[C@@H]1C3)CC2 [Example 526, hydrochloride]", 0.97),
    ("CC(C)(C)OC(=O)N1C[C@@H](N2CCc3c(-c4cnc(N)nc4)nc(N4CCOCC4)nc32)[C@@H](F)C1", 0.03),
    ("C[C@]1(N2CCc3c(-c4cnc(N)nc4)nc(N4CCOCC4)nc32)CCN(C2CCNC2=O)C1 (some centres unmarked)", -1.02),
    ("C[C@H]1COCCN1c1nc(-c2cnc(N)nc2)c2c(n1)N([C@H]1[C@H]3C[C@@H]1N(C(=O)OC(C)(C)C)C3)CC2", 0.72),
    ("C[C@H]1COCCN1c1nc(-c2cnc(N)nc2)c2c(n1)N([C@@]1(C)CCN(C(=O)C3(F)CN(C(=O)OC(C)(C)C)C3)C1)CC2", -1.25),
    ("CS(=O)(=O)N1C[C@H]2C[C@@H]1[C@@H]2N1CCc2c(-c3cnc(N)nc3)nc(N3CCOCC3)nc21 (single isomer, unassigned) [Example 439]", 0.18),
]

----------
tested system: truncated PI3Kα (p110α/iSH2 p85α) (Homo sapiens (Human), UniProt P42336)
protocol: PI3KA_Act fluorescence polarization kinase assay (Ki)
Assay type: biochemical
test context: 1 mM ATP
Protocol: 2) p110α-iSH2 p85α Complex (Full Length p110α and p85α iSH2)(“PI3KA_Act”) […] The biochemical assays of kinase activity of full-length PI3Kα (full-length p110α/p85a) or truncated PI3Kα (p110α/iSH2 p85a) were conducted using a fluorescence polarization format similar to the procedure of Yuan J., et al., (2011) “PF-04691502, a Potent and Selective Oral Inhibitor of PI3K and mTOR Kinases with Antitumor Activity”, Mol Cancer Ther. 10, 2189-2199. […]
Label scheme for PI3KA_Act Ki: lower than 0.07 nM is not satisfied, 0.07 nM and above is satisfied.

# compound structure, cat
rows = [
    ("C[C@]1(N2CCc3c(-c4cnc(N)nc4)nc(N4CCOCC4)nc32)CCN(C(=O)CC(F)(F)F)C1", "not satisfied"),
    ("C[C@]1(N2CCc3c(-c4cnc(N)nc4)nc(N4CCOCC4)nc32)CCN(C(=O)[C@@H](N)C2CC2)C1.Cl", "not satisfied"),
    ("CC(C)(C)OC(=O)N1CCC(C)(N2CCc3c(-c4cnc(N)nc4)nc(N4CCOCC4)nc32)CC1", "not satisfied"),
    ("CC(C)(C(=O)O)C(=O)N1CC[C@](C)(N2CCc3c(-c4cnc(N)nc4)nc(N4CCOCC4)nc32)C1", "satisfied"),
    ("C[C@]1(N2CCc3c(-c4cnc(N)nc4)nc(N4CCOCC4)nc32)CCN(C(=O)[C@H](N)CF)C1.Cl", "not satisfied"),
    ("C[C@@H]1COCCN1c1nc(-c2cnc(N)nc2)c2c(n1)N([C@]1(C)CCN(S(C)(=O)=O)C1)CC2", "satisfied"),
]

Numbers sourced from patent US9260439B2.
